B1: library; a variant is named by its letters at N, in order (parent)
chain: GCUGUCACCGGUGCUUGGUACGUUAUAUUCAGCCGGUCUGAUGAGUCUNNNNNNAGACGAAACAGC

- Variants of: B1
- test_summary: FACS-Seq fitted mean relative fluorescence mCherry/BFP with ligand (log10 relative fluorescence); HEK293T overexpressing SLC46A1; ligand concentration (+) FACS-Seq: 6 mM; higher = higher reporter protein expression
- condition_info: with (6R,S)-folinic acid; ligand present: yes
Quick rule for you: FACS-Seq fitted mean (log10) at 0.2 or higher means class 1, lower means class 0.

The following variants have reported results that may help.
sequence_code	category_label
GCUGUCACCGGUGCUUGGUACGUUAUAUUCAGCCGGUCUGAUGAGUCUAAGAACAGACGAAACAGC	class 1
GCUGUCACCGGUGCUUGGUACGUUAUAUUCAGCCGGUCUGAUGAGUCUAAUGCAAGACGAAACAGC	class 1

[ask] Check the entry GCUGUCACCGGUGCUUGGUACGUUAUAUUCAGCCGGUCUGAUGAGUCUCAUUUUAGACGAAACAGC : does FACS-Seq fitted mean (log10) equal or exceed 0.2?
[reply] class 1

[ask] Another: GCUGUCACCGGUGCUUGGUACGUUAUAUUCAGCCGGUCUGAUGAGUCUAGGUCCAGACGAAACAGC
[reply] class 1

[ask] Another: GCUGUCACCGGUGCUUGGUACGUUAUAUUCAGCCGGUCUGAUGAGUCUACGAUCAGACGAAACAGC
[reply] class 1

[ask] Another: GCUGUCACCGGUGCUUGGUACGUUAUAUUCAGCCGGUCUGAUGAGUCUGAUGCAAGACGAAACAGC
[reply] class 1

[ask] Another: GCUGUCACCGGUGCUUGGUACGUUAUAUUCAGCCGGUCUGAUGAGUCUACCGAAAGACGAAACAGC
[reply] class 0
